meta.source: patent EP1247803A2

Biological target: EGFR (Homo sapiens, UniProt P00533)
Construct: Add 7 ug A431 cell lysate per well (EGFR source); endogenous in cells; host or cells: A431
Sequence (P00533 25-1210): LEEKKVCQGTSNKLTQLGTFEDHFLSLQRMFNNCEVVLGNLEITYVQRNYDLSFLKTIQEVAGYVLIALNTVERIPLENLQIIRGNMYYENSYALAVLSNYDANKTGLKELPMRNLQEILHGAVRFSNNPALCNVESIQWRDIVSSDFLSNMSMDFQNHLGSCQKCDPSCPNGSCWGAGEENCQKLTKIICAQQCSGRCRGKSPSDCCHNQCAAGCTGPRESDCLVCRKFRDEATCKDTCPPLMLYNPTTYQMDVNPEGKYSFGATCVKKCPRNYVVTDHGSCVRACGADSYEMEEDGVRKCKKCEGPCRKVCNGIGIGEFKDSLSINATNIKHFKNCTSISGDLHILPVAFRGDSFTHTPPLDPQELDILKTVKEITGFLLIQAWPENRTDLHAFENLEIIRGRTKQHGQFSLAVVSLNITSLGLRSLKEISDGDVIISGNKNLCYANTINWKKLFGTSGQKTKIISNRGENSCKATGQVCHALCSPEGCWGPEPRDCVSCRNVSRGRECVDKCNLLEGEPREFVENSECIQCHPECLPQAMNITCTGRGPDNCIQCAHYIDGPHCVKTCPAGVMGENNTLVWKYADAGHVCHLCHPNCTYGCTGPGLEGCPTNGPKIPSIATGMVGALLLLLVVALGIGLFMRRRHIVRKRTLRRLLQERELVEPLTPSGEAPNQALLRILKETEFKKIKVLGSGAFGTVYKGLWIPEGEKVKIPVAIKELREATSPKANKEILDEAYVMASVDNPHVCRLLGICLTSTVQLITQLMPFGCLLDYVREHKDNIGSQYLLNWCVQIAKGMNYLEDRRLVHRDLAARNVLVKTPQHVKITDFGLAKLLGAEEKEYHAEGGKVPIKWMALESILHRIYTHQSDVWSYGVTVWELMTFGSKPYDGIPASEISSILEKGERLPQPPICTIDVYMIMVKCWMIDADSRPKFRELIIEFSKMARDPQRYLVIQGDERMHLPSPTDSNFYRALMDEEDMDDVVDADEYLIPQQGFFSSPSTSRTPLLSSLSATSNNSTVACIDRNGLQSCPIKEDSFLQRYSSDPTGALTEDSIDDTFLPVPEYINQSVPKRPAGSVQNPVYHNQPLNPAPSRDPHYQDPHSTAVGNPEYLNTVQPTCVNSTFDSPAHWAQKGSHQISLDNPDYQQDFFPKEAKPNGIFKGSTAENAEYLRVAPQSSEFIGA
Assay: EGFR ELISA assay (in vitro kinase activity, EGFR captured from A431 cell lysate)
Assay type: biochemical
Set-up: concentration or dose not given beside the values
Source text: To provide a consistent method for measuring the in vitro kinase activity of the EGFR in an Enzyme-linked immunosorbent assay (Elisa). Scope. The following protocol describes the procedures used to analyze protein tyrosine kinase activity on the EGFR in an Elisa. The procedure also describes the protocol for the initial screening of drugs for inhibition or activation of protein tyrosine kinase activity. Reagents and Supplies. • 1. […]
The following compounds are shown together with reported Biochem EGFR %Inhibition values.
MEASURE: Biochem EGFR %Inhibition (%)

INSERT INTO assay_data (compound, measure, val) VALUES
  ('CNS(=O)(=O)c1ccc2c(c1)C(=C1C(=O)Nc3ccccc31)C(=O)N2 [10726/D09]', 'Biochem EGFR %Inhibition', -6.5),
  ('Cc1c(Br)ccc2c1C(=Cc1ccccc1)C(=O)N2 [10720/C06]', 'Biochem EGFR %Inhibition', -9.7),
  ('CNS(=O)(=O)c1ccc2c(c1)C(=Cc1cc(Cl)cc(Cl)c1O)C(=O)N2 [10734/D03]', 'Biochem EGFR %Inhibition', 19.6),
  ('CCn1c2ccccc2c2cc(C=C3C(=O)Nc4ccc(S(=O)(=O)Nc5ccc(C(F)(F)F)cc5)cc43)ccc21 [10731/E02]', 'Biochem EGFR %Inhibition', 7.9),
  ('O=C1Nc2ccc(CCCl)cc2C1=Cc1c[nH]cn1 [10725/G11]', 'Biochem EGFR %Inhibition', -32.4),
  ('CNS(=O)(=O)c1ccc2c(c1)C(=Cc1cc(Br)c(OC)c(C(C)(C)C)c1)C(=O)N2 [10732/D07]', 'Biochem EGFR %Inhibition', -19.1),
  ('Cc1c(Br)ccc2c1C(=Cc1ccc[nH]1)C(=O)N2 [10717/C09]', 'Biochem EGFR %Inhibition', 8.1),
  ('CCOC(=O)c1c(C)[nH]c(C=C2C(=O)Nc3ccc(S(=O)(=O)Nc4ccc(C(F)(F)F)cc4)cc32)c1C [10718/E02]', 'Biochem EGFR %Inhibition', 1.0),
  ('CNS(=O)(=O)c1ccc2c(c1)C(=Cc1c(Br)ccc(OC)c1O)C(=O)N2 [10725/D03]', 'Biochem EGFR %Inhibition', -2.5),
  ('CC(C)(C)c1cc(C=C2C(=O)Nc3ccc(CCCl)cc32)cc(Cl)c1O [10722/G08]', 'Biochem EGFR %Inhibition', -8.5),
  ('CNS(=O)(=O)c1ccc2c(c1)C(=Cc1cccc(C#N)c1)C(=O)N2 [10727/D08]', 'Biochem EGFR %Inhibition', -0.5),
  ('Cc1c(Br)ccc2c1C(=Cc1ccc(O)cc1O)C(=O)N2 [10723/C08]', 'Biochem EGFR %Inhibition', 45.0),
  ('O=C1Nc2c(Br)cc(Br)cc2C1=Cc1cccc(Br)c1 [10723/A10]', 'Biochem EGFR %Inhibition', -24.8),
  ('Cc1c(Br)ccc2c1C(=Cc1ccc(Br)o1)C(=O)N2 [10726/C05]', 'Biochem EGFR %Inhibition', 16.7),
  ('O=C1Nc2ccc(S(=O)(=O)N3CCOCC3)cc2C1=Cc1coc2ccc(Cl)cc2c1=O [10730/F06]', 'Biochem EGFR %Inhibition', -0.6),
  ('COc1ccc(C=C2C(=O)Nc3c(Br)cc(Br)cc32)cc1OC [10720/A04]', 'Biochem EGFR %Inhibition', -1.8),
  ('COc1cc(Br)cc(C=C2C(=O)Nc3ccc(S(=O)(=O)Nc4ccc(C(F)(F)F)cc4)cc32)c1O [10733/E08]', 'Biochem EGFR %Inhibition', 54.2),
  ('Cc1c(Br)ccc2c1C(=Cc1ccc(N3CCN(C=O)CC3)cc1)C(=O)N2 [10725/C07]', 'Biochem EGFR %Inhibition', -16.5),
  ('O=C1Nc2ccc(CCCl)cc2C1=Cc1ncc[nH]1 [10720/G11]', 'Biochem EGFR %Inhibition', -56.7),
  ('O=C1Nc2ccc(S(=O)(=O)N3CCOCC3)cc2C1=Cc1ccccc1Sc1ccc(Cl)cc1 [10727/F05]', 'Biochem EGFR %Inhibition', -9.1),
  ('O=C1Nc2ccc(S(=O)(=O)Nc3ccc(C(F)(F)F)cc3)cc2C1=Cc1cc(Br)ccc1O [10733/E09]', 'Biochem EGFR %Inhibition', 72.4),
  ('O=C1Nc2c(Br)cc(Br)cc2C1=Cc1ccc(F)cc1C(F)(F)F [10719/A11]', 'Biochem EGFR %Inhibition', 10.5),
  ('CNS(=O)(=O)c1ccc2c(c1)C(=Cc1cc(OC)cc(OC)c1)C(=O)N2 [10728/D04]', 'Biochem EGFR %Inhibition', -1.1),
  ('CC(C)(C)c1cc(C=C2C(=O)Nc3ccc(CCCl)cc32)cc(I)c1OCc1ccccc1 [10733/G02]', 'Biochem EGFR %Inhibition', -6.2),
  ('COc1ccc(C=C2C(=O)Nc3ccc(S(=O)(=O)N4CCOCC4)cc32)cc1OC [10720/F04]', 'Biochem EGFR %Inhibition', -11.7),
  ('CCOc1cccc(C=C2C(=O)Nc3ccc(S(=O)(=O)Nc4ccc(C(F)(F)F)cc4)cc32)c1O [10734/E02]', 'Biochem EGFR %Inhibition', -10.8),
  ('Cc1c(Br)ccc2c1C(=C1C(=O)Nc3ccccc31)C(=O)N2 [10726/C09]', 'Biochem EGFR %Inhibition', -14.3),
  ('O=C1Nc2ccc(CCCl)cc2C1=Cc1cc(O)c(O)c(Br)c1 [10723/G04]', 'Biochem EGFR %Inhibition', 16.7),
  ('O=C1Nc2c(Br)cc(Br)cc2C1=Cc1ccc(Br)cc1 [10717/A08]', 'Biochem EGFR %Inhibition', 39.1),
  ('CNS(=O)(=O)c1ccc2c(c1)C(=Cc1c(O)cc(C)cc1OC)C(=O)N2 [10725/D06]', 'Biochem EGFR %Inhibition', -26.4),
  ('O=C1Nc2c(Br)cc(Br)cc2C1=Cc1ccccc1O [10720/A05]', 'Biochem EGFR %Inhibition', -4.4),
  ('COc1ccc(C=C2C(=O)Nc3ccc(I)cc32)c2ccccc12 [10729/B03]', 'Biochem EGFR %Inhibition', 38.2),
  ('O=C1Nc2ccc(I)cc2C1=Cc1ccc(O)c(O)c1O [10723/B02]', 'Biochem EGFR %Inhibition', 91.0),
  ('CN(C)c1ccc(C=C2C(=O)Nc3ccc(S(=O)(=O)Nc4ccc(C(F)(F)F)cc4)cc32)c2ccccc12 [10724/E02]', 'Biochem EGFR %Inhibition', 39.8),
  ('Cc1c(Br)ccc2c1C(=Cc1ccc(O)c(O)c1)C(=O)N2 [10719/C03]', 'Biochem EGFR %Inhibition', 60.6),
  ('Cc1c(Br)ccc2c1C(=Cc1cc(I)c(OCc3ccccc3)c(C(C)(C)C)c1)C(=O)N2 [10733/C02]', 'Biochem EGFR %Inhibition', 31.6);

* * *

tested on: MET; assay: MET biochemical kinase assay; parameters: species or system human; concentration or dose not given beside the values
MEASURE: Met Kinase % Inhibition (%)

INSERT INTO results (compound, readout_unit, val) VALUES
  ('O=C1Nc2ccc(S(=O)(=O)Nc3ccc(C(F)(F)F)cc3)cc2C1=Cc1cc(Cl)cc(Br)c1O [10727/E04]', '%', 98.4),
  ('CCN(CC)c1ccc(C=C2C(=O)Nc3ccc(S(=O)(=O)N4CCOCC4)cc32)cc1 [10727/F02]', '%', 52.0),
  ('O=C1Nc2ccc(I)cc2C1=Cc1cc2ccccc2o1 [10724/B07]', '%', 57.9),
  ('COc1ccc(C=C2C(=O)Nc3ccc(S(=O)(=O)N4CCOCC4)cc32)cc1C(C)(C)C [10732/F05]', '%', 58.9),
  ('CCOc1cc(C=C2C(=O)Nc3ccc(S(=O)(=O)NC)cc32)ccc1O [10720/D09]', '%', 62.8),
  ('O=C1Nc2ccc(S(=O)(=O)Nc3ccc(C(F)(F)F)cc3)cc2C1=Cc1cc(Br)ccc1O [10733/E09]', '%', 62.6),
  ('O=C1Nc2ccc(S(=O)(=O)N3CCOCC3)cc2C1=Cc1ncc[nH]1 [10720/F11]', '%', 1.6),
  ('Cc1c(Br)ccc2c1C(=Cc1ccc(F)cc1Cl)C(=O)N2 [10719/C09]', '%', 8.9),
  ('COc1c(I)cc(C=C2C(=O)Nc3ccc(S(=O)(=O)N4CCOCC4)cc32)cc1C(C)(C)C [10732/F11]', '%', 75.2),
  ('COc1cc(OC)c(C=C2C(=O)Nc3c(Br)cc(Br)cc32)c(OC)c1 [10719/A06]', '%', -7.0);
